Property: GI50; scope: individual compounds
System: SR
EXPERIMENT SUMMARY: Antiproliferative activity against human SR cells assessed as inhibition of cell growth measured after 48 hrs by SRB assay
Assay type: functional

# input Provide one value: measured GI50 of COc1ccc2nc3c(cc2c1)C(=O)CC(c1ccccc1)C3 (stereo not given)
# output 322 nM

# input Provide one value: measured GI50 of O=C1CC(c2ccccc2)Cc2nc3c(Br)cc(Br)cc3cc21 (stereo not given)
# output 91.3 nM

# input Provide one value: measured GI50 of O=C1CC(c2ccccc2)Cc2nc3ccc(Br)cc3cc21 (stereo not given)
# output 56.7 nM

# input Provide one value: measured GI50 of COc1ccc2nc3c(cc2c1)C(=O)CC(C(F)(F)F)C3 (stereo not given)
# output 217 nM

# input Provide one value: measured GI50 of O=C1CC(c2ccccc2)Cc2nc3ccc(Cl)cc3cc21 (stereo not given)
# output 53.2 nM

###

Test system: HT-29
EXPERIMENT SUMMARY: Antiproliferative activity against human HT-29 cells assessed as inhibition of cell growth measured after 48 hrs by SRB assay
Format: functional
TEST CONDITIONS: HT-29, 48 h
PROPERTY: GI50 (nM)
Express the result in nM but write the number alone.

Previously resolved entries follow.
O=C1CC(c2ccccc2)Cc2nc3c(Br)cc(Br)cc3cc21 (stereo not given); 233
O=C1CC(c2ccccc2)Cc2nc3ccc(Br)cc3cc21 (stereo not given); 205
O=C1CC(c2ccccc2)Cc2nc3ccc(Cl)cc3cc21 (stereo not given); 271
COc1ccc2nc3c(cc2c1)C(=O)CC(c1ccccc1)C3 (stereo not given); 428

# input Provide one value: measured GI50 of COc1ccc2nc3c(cc2c1)C(=O)CC(C(F)(F)F)C3 (stereo not given)
# output 387

###

System: M14
EXPERIMENT SUMMARY: Antiproliferative activity against human M14 cells assessed as inhibition of cell growth measured after 48 hrs by SRB assay
Type: functional
TEST CONDITIONS: M14, 48 h
PROPERTY: GI50 (nM)
Express the result in nM but write the number alone.

O=C1CC(c2ccccc2)Cc2nc3c(Br)cc(Br)cc3cc21 (centres undefined); 284

# input Provide one value: measured GI50 of O=C1CC(c2ccccc2)Cc2nc3ccc(Br)cc3cc21 (centres undefined)
# output 50.5

# input Provide one value: measured GI50 of COc1ccc2nc3c(cc2c1)C(=O)CC(c1ccccc1)C3 (centres undefined)
# output 259

# input Provide one value: measured GI50 of COc1ccc2nc3c(cc2c1)C(=O)CC(C(F)(F)F)C3 (centres undefined)
# output 238
